assay: yeast display, Sf9 membrane polyspecificity reagent, FACS + sequencing; frameworks hold sequencing errors
QUANTITY: polyreactivity (PSR sort gate)

A selection of reference data follows.
1. QVKLVESGGGLVQAGGSLRLSCAASGNIFSIYAMGWYRQAPGKERELVAAITARGGRTYYADSVKGRFTFSRDNAKNTVYLQMNSLKPEDTAVYYCNAVRSTKGYWVPFGGDYWGQGTQGTVSS; low polyreactivity
2. QVQLVESGGGLVQAGGSLRLSCAASGSTYAMGWYRQAPGKERELVASITSRGGSTYYADSVKGRFTISRDNANNTVYLQMNSLKPEDTAVYYCAARWYYSYICYDYWRQGTQVTVSS; high polyreactivity
3. QVQLVESGGGLVQAGGSLRLSCAASGGTFDWNTMGWYRQAPGKERELVASITSGGRTNYADSVKGRFTISRDNAKNTVYLQMNSLKPEDTAVYYCAKYRRSAYPWQTWVGQKFDYWGQGTQVTVSS; low polyreactivity
4. QVQLVESGGCLVQAGGSLRLSCAASGSTFSWYTMGWYRQAPGKERELVAAITRGGTTYYADSVKGRFTISRDNAKNTVYLQMNSLKPEDSAVYYCAARYSRDVRMGYWGQGTQVTVSS; high polyreactivity
5. QVQLHESGGGLVQAGGSLRLSCAASGTISYAGPMGWYRQAPGKEREFVAGIGVGSNTNYADSVKGRYTIIRDNAKNTVYLQMNSLQPEDTAVYYCAVGGFAPLGRPYWGQGTQVTVSS; low polyreactivity
6. QVHLVESGGGLVQAGGSLRLSCAASGRTFHVYAMGWYRQAPGKEREFVAFISRRGGSTYYADSVKGRFTISRDNAKNTVYLQMNSLKPEDTAVYYCNAKYPSNYVVQDDYWGQGTQVTVSS; high polyreactivity
7. QVQLVESGGGLVQAGGSLRLSCAASGNIFSYYAMGWYRQAPGKERELVAAIYTGGSTYYADSVKGRFTISRDNAKNTVYLQMNSLKPEDTAVYYCAARGLKLRQDYDYWGQGTQVTVSS; low polyreactivity
8. QVQLVESGGGLVQAGGSLLLSCAASGSTFISYAMGWYRQAPGKERELVAAITWRGGSTYNADSVKGRFTISRDNAKNTVYLQMNSMKPEDTAVYYCAAEFYYYYGRYDYWGQGTQVTVSS; high polyreactivity
9. QVQLVESGGGLVQAGGSLRLSCAASGRILVPYAMGWYRQAPGKERELVAAINPRGGRTYYADSVKGRFTISRDNAKYTVYLQMNSLKPEDTAVYYCNALAHQYHRYEFGYWGQGTQVTVSS; low polyreactivity
10. QVQLVESWGGLVQAGGSLRLSCAASGFTYSQYVMGWYIQAPGKERELVASITGNGGSTRYADSVKGRFTISRDNAKNTVYLHMNSLKPEDTAVYYCAARYVYFRWGSFDYWGQGTQVTVSS; high polyreactivity

In plain terms, QDQLVESGGGLVQAGGSLRLSCAAYGNTIIRYAMGWYRQAPGKERELVAAIAYSGGRTYYADSVKGRFTISRDNAKNTVFLQMNSLKPEDTAVYYCNAASRYGGDYWGQGTQVTVSS has a documented polyreactivity (PSR sort gate) of high polyreactivity

In plain terms, QVQLVESGGGLVQAGGSLRLSCAASGSIFRYYAMGWYRQAPGKEREFVARISVSGGSTYYADSVKGRFTISRDNAKNAVYLQMNSLKPEDTAVYYCNTADFRSRYPAMGYWGQGTQVNVSS has a documented polyreactivity (PSR sort gate) of low polyreactivity

In plain terms, QVQLVESGGGLVQAGGSLRLSCAASGRTFTTYAMGWYRQSPGKERELVAAISGSGGSTYYADSVKGRFTISRDNAKNTVYLQMNSLKPEDTAVYYCATAYYYHGGYYYPYDDYWGQGTQVTVSS has a documented polyreactivity (PSR sort gate) of low polyreactivity

In plain terms, QVQLVESGGGLVQAGGSLRLSCAASGIIFYLYAMGWYRQAPGKERELVAAISRRGVSTYYADSVKGRFTISRDNAKNTVYLQMNSLKPEDTAVYYCAAAGFGYTGEEYWGQGTQVTVSS has a documented polyreactivity (PSR sort gate) of high polyreactivity

In plain terms, QVQLVESGGGLVQAGGSLRLSCAASGFTFPYNGMGWYRQAPGKERELVASISWSGASTYYADSVKGRFTISRDNAKNTVYLQMNSLKPEDTAVYYCASDPGYYSWGSSQDDYWGQGTQVTVSS has a documented polyreactivity (PSR sort gate) of low polyreactivity

In plain terms, QVQLVESGGGLVQAGGSLRLSCAASGNTFKGYAMGSYRPAPGKERELVAAISWSGSSTYYADSVKGRFTISRDNAKNTVYLQMNSLKPEDTAVYYCAKAFKYTSPRRPYDYWGQGTQVTVSS has a documented polyreactivity (PSR sort gate) of high polyreactivity

In plain terms, QVQLVESGGGLVQAGGSLRLSCAASGRTFYANAMGWYRHAPGKERELVASITGSGGRTYYADSVKGRFTISRDNAKNTVYLLMNSLKPEDTAVYYCNADPGWVYRDYEPNGLDYWGQGTQVTVSS has a documented polyreactivity (PSR sort gate) of low polyreactivity

In plain terms, QVQLVESGGGLVQAGGSLRLSCAASGFIFRYYAMGWYRQAPGKERELVARISSSGGRTYYADSVKGRFTISRDNAKNTVYLQMNSLKPEDTAVYYCNTADYHGRWAFAWYGDYWGQGTQVTVSS has a documented polyreactivity (PSR sort gate) of high polyreactivity

In plain terms, QVQLVESGGGLVQAGGSLRVSCAASGGIFGWYAMGWSRQAPGKERELVATITWRGGRTYYADSVKGRCTISRDNAKNTVYLQLTSLKPESTAVYYCTAEWLWYDAGYRYTIRDSWGQGTQVTESS has a documented polyreactivity (PSR sort gate) of low polyreactivity

In plain terms, QVQLVESGGGLVQAGGSLRLSCAASGRIFYINAMGWYRQAPGKERELVAAITEGGVSTYYADSVKGRFTISRDNAKNTVYLQMNSLKPEDTAVYYCNTTGGPDGIVIYEYWGQGTQVTVSS has a documented polyreactivity (PSR sort gate) of low polyreactivity

In plain terms, QVQLVESGRGLVQAGVSLRLSCAASGFIFYDYAMGWYRPAPGTERELVAAISSGGSTNYADSVKGLFTISRDNAKNTVYLQMNSLKPEDTAVYYCAADVRSYATWKRDYDYWGQGTQVTVSS has a documented polyreactivity (PSR sort gate) of low polyreactivity
